- Assayed Target: T1, human CD47ECD His tagged protein (human, UniProt Q08722 19-139, limits assumed)
- T1 construct: extracellular domain; also called HuCD47ECD 8xHis; monovalent CD47ECD His tagged protein
- T1 sequence (Q08722 19-139 limits assumed): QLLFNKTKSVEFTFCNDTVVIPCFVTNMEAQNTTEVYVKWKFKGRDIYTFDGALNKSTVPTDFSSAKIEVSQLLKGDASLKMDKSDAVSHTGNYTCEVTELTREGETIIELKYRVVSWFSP
- Assay Notes: SPR (Biacore 3000); antibody captured on anti-human Fc chip, monovalent HuCD47ECD 8xHis injected
Measurement Kind: koff

Recorded koff, per entry:
Please look up its koff: D96S1 mouse/human chimeric anti-human CD47 antibody (antibody, V domains shown, also called chimeric D96S1) VH: EVQLQQSGAELVKPGASVKLSCTASGFNIKDTYIHWVKQRPEQGLEWIGRIDPANGNIKSDPKFQGKATVTADTSSNTAYLQLSSLTSEDTAVYYCARSYGSSFASWGQGTLVTVSP VL: DIQMTQTTSSLSASLGDRVTISCRASQDISNHLNWYQQKPDGAVKLLIYYTSRLHSGVPSRFSGSGSGTDYSLTISNLEQEDIATYFCQQGSTFPYTFGGGTKLEIK
0.000253 s⁻¹

Would you kindly share the measured koff for D36S4 mouse/human chimeric anti-human CD47 antibody (antibody, V domains shown, also called chimeric D36S4 antibody; D36S4 H/L) VH: EVKLEESGGGLVQPGGSMKLSCVASGFTFSRYWMNWVRQSPDKGLEWVAQIRLKSDNYETHYAESVKGRFTISRDDSKSSVYLQMNNLRAEDTGIYYCIEEGGYYVPFAYWGQGTLVTVSA VL: DIVVSQSPSSLAVSAGEKVTMSCKSSQSLFKSRTRKNYLAWYQQRPGQSPKLLIYWASIRESGVPDRFTGSGSGTEFTLTISSVQAEDLAVYYCKQSYYLLTFGAGTKLELK ?
0.000236 s⁻¹

Look up koff for this binder: D125S3 mouse/human chimeric anti-human CD47 antibody (antibody, V domains shown, also called chimeric D125S3) VH: EVQLVESGGDLVKPGGSLNLSCAASGFTFSDYGMSWVRQTPDMRLEWVATISKYGTYTSYPDSVKGRFTISRSNAKNTLYLQMSSLKSADTALYYCARRFFGNYNYWYFDVWGAGTTVTVSS VL: DIVLTQSPASLAVSLGQRATFSCRASESVDEFGISYIHWYKKSPGQPPKLLIYRASTLESGISARFSGSGSGTDFTLTINPVETDDVATYYCQQSNQDPLTFGAGTKLELK
0.000511 s⁻¹

Looking for the measured koff of D8S1 mouse/human chimeric anti-human CD47 antibody (antibody, V domains shown, also called chimeric D8S1) VH: EVQLQQSVAELVRPGASVKLSCTVSGFNIKNTYIYWVKQRPEQGLEWIGRIDPANGNTKDAPKFQGKATMTADTSSNTAYLQLSSLTSEDTAIYYCARGYGSGFAYWGQGTLVTVSA VL: DIQMTQTTSSLSASLGDRVTISCRASQDISNHLNWYQQKPDGIVKLLIYYTSRLHSGVPSRFSGSGSGTDYSLTISNLEQEDIATYFCQQGSTLPFTFGSGTKLEIK , can you help?
0.00049 s⁻¹

// query koff value for entry AB6.12, a humanized version of anti-CD47 antibody 2A1 from Celgene (antibody, from another filing, V domains shown) VH: QMQLVQSGAEVKKTGSSVKVSCKASGFNIKDYYLHWVRQAPGQALEWMGWIDPDQGDTEYAQKFQDRVTITRDRSMSTAYMELSSLRSEDTAMYYCNAAYGSSSYPMDYWGQGTTVTVSS VL: NIQMTQSPSAMSASVGDRVTITCKASQDIHRYLSWFQQKPGKVPKHLIYRANRLVSGVPSRFSGSGSGTEFTLTISSLQPEDFATYYCLQYDEFPYTFGGGTKVEIKR
0.000703 s⁻¹

# next binder below
Reported koff for D41S2 mouse/human chimeric anti-human CD47 antibody (antibody, V domains shown, also called chimeric D41S2) VH: EVQLQQSVAELVRPGASVKLSCTPSGFNIKNTYIYWVRQRPEQGLEWIGRIDPANGNTKDAPKFQGKATMTADTSSNTAYLQLSSLTSEDTAIYYCARGYGSGFAYWGQGTLVTVSA VL: DIQMTQTTSSLSASLGDRVTISCRASQDISNHLNWYQQKPDGTVKLLIYYTSRLHSGVPSRFSGSGSGTDYSLTISNLEQEDIATYFCQQGSTLPFTFGSGTKLEIK : what is it?
0.000756 s⁻¹
